Reported CC50 at 48 h by item:
- assay info: Cytotoxicity against non-malignant HGF cells, MTT method, 48 h
- Format: cell-based
- reported conditions: human, gingival fibroblasts (HGF)

[
  {
    "compound": "COc1cccc2c1C(=O)c1c(O)c3c(c(O)c1C2=O)C[C@@](O)(C(=O)CO)C[C@@H]3O[C@H]1C[C@H](N)[C@H](O)[C@H](C)O1 [Doxorubicin, reference compound]",
    "endpoint result": "3.44 µM"
  }
]

Input line: Recorded CC50 at 48 h for N[C@@H](Cc1ccc(N(CCCl)CCCl)cc1)C(=O)O [Melphalan, reference compound] , please?
Output line: 157 µM

Input line: Param item = `COc1ccc(/C=C2\CN(C(=O)CCN3CCC(=NO)CC3)C/C(=C\c3ccc(OC)cc3)C2=O)cc1` ; retrieve measured CC50 at 48 h.
Output line: 6.63 µM

Input line: Need CC50 at 48 h of COc1ccc(/C=C2\CN(C(=O)CC[N+]3(C)CCC(=NO)CC3)C/C(=C\c3ccc(OC)cc3)C2=O)cc1 (centres unmarked) , thanks.
Output line: 6.3 µM

Input line: I have this compound here, C[N+]1(CCC(=O)N2C/C(=C\c3ccc(F)cc3)C(=O)/C(=C/c3ccc(F)cc3)C2)CCC(=NO)CC1 (centres unmarked) , and I need its recorded CC50 at 48 h.
Output line: 4.5 µM

Input line: Reported CC50 at 48 h for C[N+]1(CCC(=O)N2C/C(=C\c3ccc([N+](=O)[O-])cc3)C(=O)/C(=C/c3ccc([N+](=O)[O-])cc3)C2)CCC(=NO)CC1 (centres unmarked) : what is it?
Output line: 1.15 µM

Input line: Can you look up the measured CC50 at 48 h of `O=C1/C(=C/c2ccc(F)cc2)CN(C(=O)CCN2CCC(=NO)CC2)C/C1=C\c1ccc(F)cc1` for me?
Output line: 7.12 µM

Input line: Reported CC50 at 48 h, compound C[N+]1(CCC(=O)N2C/C(=C\c3ccccc3)C(=O)/C(=C/c3ccccc3)C2)CCC(=NO)CC1 (centres unmarked) : ____
Output line: 9.65 µM

The reported numbers originate from paper PMC8659243.
